These data points were gathered from ChEMBL document CHEMBL1153244.

# assay_remarks: Clearance in rat at 10.6 mg, iv
# Type: ADME, organism-based
# condition_description: in vivo

{"columns": ["structure_smiles", "readout_unit", "clearance"],
 "data": [
  ["Cc1n[nH]c2ncc(-c3cc(OC[C@@H](N)Cc4c[nH]c5ccccc45)cnc3-c3ccoc3)nc12", "mL/min/kg", 53.2]
]}

---

# study_system: RAC-beta serine/threonine-protein kinase (Homo sapiens)
# Sequence (P31751 whole entry): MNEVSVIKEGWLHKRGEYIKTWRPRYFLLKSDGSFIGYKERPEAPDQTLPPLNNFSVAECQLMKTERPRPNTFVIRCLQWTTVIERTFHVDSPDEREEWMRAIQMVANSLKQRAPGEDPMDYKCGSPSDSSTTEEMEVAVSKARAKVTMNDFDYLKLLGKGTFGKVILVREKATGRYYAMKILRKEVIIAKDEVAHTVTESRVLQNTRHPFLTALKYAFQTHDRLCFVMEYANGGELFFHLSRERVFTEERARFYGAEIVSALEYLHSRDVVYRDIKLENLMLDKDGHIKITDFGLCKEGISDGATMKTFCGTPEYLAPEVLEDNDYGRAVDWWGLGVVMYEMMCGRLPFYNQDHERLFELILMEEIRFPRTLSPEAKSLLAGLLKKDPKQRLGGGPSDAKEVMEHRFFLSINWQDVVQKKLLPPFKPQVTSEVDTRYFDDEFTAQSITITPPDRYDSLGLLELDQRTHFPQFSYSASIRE
Hi! Just check whether IC50 is below 20 nM. Below gives met, equal or above gives not met.

{"columns": ["structure_smiles", "group"],
 "data": [
  ["Cc1occc1-c1nc(N)c(OC[C@@H](N)Cc2c(C#N)[nH]c3ccccc23)cc1-c1cnc2[nH]nc(C)c2n1", "met"],
  ["Cc1occc1-c1nc(N)c(OC[C@@H](N)Cc2c[nH]c3ccccc23)cc1-c1cnc2[nH]nc(C)c2c1", "met"],
  ["Cc1n[nH]c2ncc(-c3cc(OC[C@@H](N)Cc4c[nH]c5ccccc45)c(C#N)nc3-c3ccoc3)nc12", "not met"],
  ["Cc1occc1-c1ncc(OC[C@@H](N)Cc2c[nH]c3ccccc23)cc1-c1cnc2[nH]nc(C)c2n1", "not met"],
  ["Cc1occc1-c1nc(N)c(OC[C@@H](N)Cc2c[nH]c3ccccc23)cc1-c1ccc2[nH]nc(C)c2c1", "met"],
  ["CCNc1nc(-c2ccoc2)c(-c2cnc3[nH]nc(C)c3n2)cc1OC[C@@H](N)Cc1ccccc1", "not met"],
  ["Cc1nc(-c2ccoc2)c(-c2cnc3[nH]nc(C)c3n2)cc1OC[C@@H](N)Cc1c[nH]c2ccccc12", "not met"]
]}
